Test system: lipid peroxidation in murine brain homogenate
experiment-description: Inhibitory effects on lipid peroxidation (murine brain homogenate)
Type: biochemical, murine (C57 black mouse)
condition: 30 μM test compound; no added iron; 37° C., 60 minutes; pH 7.2 to 7.8
test-readout: % Inhibition of lipid peroxidation (%)
Use % as the unit, but write only the number.

# input Which % Inhibition of lipid peroxidation value belongs to Cc1ncc(CO)c(CNC(Cc2ccccc2)C(=O)O)c1O (stereo not drawn) [Synthesis Example 25] ?
# output 55

# input Which % Inhibition of lipid peroxidation value belongs to Cc1ncc(CO)c(CNCC(=O)O)c1O [Synthesis Example 16] ?
# output 89

# input Which % Inhibition of lipid peroxidation value belongs to Cc1ncc(CO)c(CNC(Cc2c[nH]cn2)C(N)=O)c1O (stereo not drawn) [Synthesis Example 23] ?
# output 39

# input Which % Inhibition of lipid peroxidation value belongs to O=C(O)[C@H](Cc1c[nH]cn1)NCc1ccccc1O [Synthesis Example 1, N-(2-hydroxybenzyl)-L-histidine] ?
# output 53

# input Which % Inhibition of lipid peroxidation value belongs to Cc1ncc(CO)c(CNC(Cc2ccc(O)cc2)C(=O)O)c1O (stereo not drawn) [Synthesis Example 26] ?
# output 39

# input Which % Inhibition of lipid peroxidation value belongs to Cc1ncc(CO)c(CNC(CCCNC(=N)N)C(=O)O)c1O (stereo not drawn) [Synthesis Example 24] ?
# output 85

# input Which % Inhibition of lipid peroxidation value belongs to Cc1ncc(CO)c(CNC(C)C(=O)O)c1O (stereo not drawn) [Synthesis Example 17] ?
# output 56

# input Which % Inhibition of lipid peroxidation value belongs to O=C1O[C@H]([C@@H](O)CO)C(O)=C1O [Vitamin C, reference compound] ?
# output -22

# input Which % Inhibition of lipid peroxidation value belongs to O=C(O)C(CO)N=Cc1c(O)ccc2ccccc12 (stereo not drawn) [Synthesis Example 28] ?
# output 70

# input Which % Inhibition of lipid peroxidation value belongs to O=C(O)[C@H](Cc1c[nH]cn1)N=Cc1c(O)ccc2ccccc12 [Synthesis Example 27, N-(2-hydroxy-1-naphthal)-L-histidine] ?
# output 98

# input Which % Inhibition of lipid peroxidation value belongs to Cc1ncc(CO)c(CNC(CC(=O)O)C(=O)O)c1O (stereo not drawn) [Synthesis Example 20] ?
# output 91

# input Which % Inhibition of lipid peroxidation value belongs to Cc1ncc(CO)c(C=NC(CO)C(=O)O)c1O (stereo not drawn) [Synthesis Example 69] ?
# output 15
